- systemUnderTest: Adrenergic receptors; alpha-1 A & B (Homo sapiens) (UniProt P35348+P35368)
- experimentDescription: Selectivity is determined from the ratio of binding affinities of alpha 1a adrenoceptor to alpha 1b adrenoceptor
- Assay type: protein assay
endpoint: Selectivity

Recorded Selectivity, per entry:
- smilesData: "O=C(c1nc(-c2c[nH]c3ccccc23)c[nH]1)c1c[nH]c2cc(O)ccc12"
  Selectivity: 4.1
- smilesData: "Brc1ccc2c(-c3c[nH]c(-c4c[nH]c5cc(Br)ccc45)n3)c[nH]c2c1"
  Selectivity: 4.1

(I) CN1C[C@H](c2c[nH]c3c(Br)c(Br)cc(O)c23)NC[C@H]1c1c[nH]c2cc(Br)ccc12
(II) Brc1ccc2c(-c3nc(-c4c[nH]c5ccccc45)c[nH]3)c[nH]c2c1
(III) O=C(c1nc(-c2c[nH]c3cc(Br)ccc23)c[nH]1)c1c[nH]c2cc(O)ccc12
(IV) Brc1ccc2c(-c3c[nH]c(-c4c[nH]c5ccccc45)n3)c[nH]c2c1
Task: Rank descending by Selectivity. Form entry: labels listed in requested order.
Result: III, II, IV, I
(III: 17, II: 5.9, IV: 3.2, I: 1.8)

---

- systemUnderTest: Alpha-1A adrenergic receptor (Rattus norvegicus)
- Sequence (P43140 whole entry): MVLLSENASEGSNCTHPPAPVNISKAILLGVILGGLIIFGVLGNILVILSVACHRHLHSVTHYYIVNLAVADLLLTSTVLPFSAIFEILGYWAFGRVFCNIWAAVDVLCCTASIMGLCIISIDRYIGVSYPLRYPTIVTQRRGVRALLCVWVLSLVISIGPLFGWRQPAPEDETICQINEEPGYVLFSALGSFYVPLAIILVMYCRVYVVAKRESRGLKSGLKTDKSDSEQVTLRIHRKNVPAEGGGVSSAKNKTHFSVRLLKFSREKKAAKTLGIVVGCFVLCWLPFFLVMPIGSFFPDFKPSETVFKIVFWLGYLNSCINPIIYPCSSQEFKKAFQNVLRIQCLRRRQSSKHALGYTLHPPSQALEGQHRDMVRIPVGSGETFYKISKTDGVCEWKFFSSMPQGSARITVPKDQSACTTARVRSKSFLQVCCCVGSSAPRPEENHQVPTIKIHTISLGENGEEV
endpoint: Ki (nM)
Could you give me the number in nM? Just the number is fine.

Task: Requested field: Ki. Item: CN1C[C@H](c2c[nH]c3c(Br)c(Br)cc(O)c23)NC[C@H]1c1c[nH]c2cc(Br)ccc12
Result: 138

---

Reported pKi, Alpha-1A adrenergic receptor (Homo sapiens).
pKi: −log10 of the molar value.
endpoint: pKi

- compound: "Brc1ccc2c(-c3c[nH]c(-c4c[nH]c5ccccc45)n3)c[nH]c2c1 [NORTOPSENTIN C]"
  systemUnderTest: "Alpha-1A adrenergic receptor (Homo sapiens)"
  pKi: 6.26

(A) Brc1ccc2c(-c3c[nH]c(-c4c[nH]c5cc(Br)ccc45)n3)c[nH]c2c1 [NORTOPSENTIN A]
(B) Brc1ccc2c(-c3nc(-c4c[nH]c5ccccc45)c[nH]3)c[nH]c2c1 [NORTOPSENTIN B]
Task: // which entry reports the smaller pKi, A or B ? # respond with the chosen item's label
Result: A
